# studySystem: UniProtKB O14684
# Sequence (O14684 whole entry): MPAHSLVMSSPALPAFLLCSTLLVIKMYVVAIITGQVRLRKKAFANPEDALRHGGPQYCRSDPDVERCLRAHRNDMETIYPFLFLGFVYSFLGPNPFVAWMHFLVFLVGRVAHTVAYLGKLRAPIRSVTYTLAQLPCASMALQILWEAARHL
# methodNotes: Inhibition of mPGES-1 from human A549 cell microsomal membranes using PGH2 as substrate incubated 15 mins prior to substrate addition measured after 1 min by RP-HPLC analysis
measurementType: pIC50
A value of pIC50 is the negative decimal logarithm of a concentration given in moles per litre.

compound	measurementType	valueMeasured
CCCCCCC(Sc1nc(Cl)cc(Nc2nc(-c3ccc(F)c(F)c3)cs2)n1)C(=O)O (stereo not given)	pIC50	5.80
CCCCCCC(Sc1nc(Cl)cc(Nc2nc(-c3ccccc3)c(C)s2)n1)C(=O)O (stereo not given)	pIC50	6.15
CCCCCCC(Sc1nc(Cl)cc(Nc2nc(C34CC5CC(CC(C5)C3)C4)cs2)n1)C(=O)O (stereo not given)	pIC50	6.05
CCC(Sc1nc(Cl)cc(Nc2nc(-c3ccc4ccccc4c3)cs2)n1)C(=O)O (stereo not given)	pIC50	5.85

Attention now shifts to the item below.
What pIC50 value was documented for this compound, CCCCCCC(Sc1nc(Cl)cc(Nc2nc(-c3ccc([N+](=O)[O-])cc3)cs2)n1)C(=O)O (stereo not given) ?
5.30

* * *

# studySystem: Prostaglandin E synthase (Homo sapiens)
# methodNotes: Inhibition of mPGES-1 (unknown origin)
measurementType: pIC50
A value of pIC50 is the negative decimal logarithm of a concentration given in moles per litre.

What pIC50 value was documented for this compound, CCCCCCC(Sc1nc(Cl)cc(Nc2cccc(-c3ccccc3)c2)n1)C(=O)O (stereo unspecified) ?
5.40

* * *

# methodNotes: Metabolic stability in Sprague-Dawley rat liver microsomes assessed as compound remaining at 10 uM after 60 mins by HPLC analysis
# Type: ADME
# conditionLabel: read-out: Stability
measurementType: remaining at 1 h, 10 µM (%)
Report only the number, with the unit % understood.

Examples with answers:
compound	unitsLabel	remaining at 1 h, 10 µM
CCOc1ccc2ccc(=O)oc2c1	%	31
CCCCCCC(Sc1nc(Cl)cc(Nc2nc(-c3ccc4ccccc4c3)cs2)n1)C(=O)O (racemic)	%	77

What remaining at 1 h, 10 µM value was documented for this compound, CCCCCCC(Sc1nc(Cl)cc(Nc2nc(-c3ccccc3)c(C)s2)n1)C(=O)O (stereo not drawn) ?
74

* * *

# studySystem: Polyunsaturated fatty acid 5-lipoxygenase (Homo sapiens)
# Sequence (P09917 whole entry): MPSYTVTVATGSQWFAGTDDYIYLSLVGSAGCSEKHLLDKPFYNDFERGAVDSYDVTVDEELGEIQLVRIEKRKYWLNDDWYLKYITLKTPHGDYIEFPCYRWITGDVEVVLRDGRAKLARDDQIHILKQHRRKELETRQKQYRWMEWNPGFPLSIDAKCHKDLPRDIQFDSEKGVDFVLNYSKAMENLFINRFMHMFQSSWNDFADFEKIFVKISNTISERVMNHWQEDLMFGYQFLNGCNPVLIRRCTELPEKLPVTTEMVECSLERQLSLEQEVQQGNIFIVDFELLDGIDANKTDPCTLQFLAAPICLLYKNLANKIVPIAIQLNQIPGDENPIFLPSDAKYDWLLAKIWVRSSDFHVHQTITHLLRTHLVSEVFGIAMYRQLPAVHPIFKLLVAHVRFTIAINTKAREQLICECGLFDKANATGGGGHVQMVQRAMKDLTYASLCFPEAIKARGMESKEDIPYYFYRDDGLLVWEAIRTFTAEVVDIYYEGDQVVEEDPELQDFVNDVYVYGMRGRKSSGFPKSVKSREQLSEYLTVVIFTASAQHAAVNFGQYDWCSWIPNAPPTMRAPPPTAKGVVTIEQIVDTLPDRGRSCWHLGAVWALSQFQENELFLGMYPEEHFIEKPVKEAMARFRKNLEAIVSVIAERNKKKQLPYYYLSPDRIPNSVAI
# methodNotes: Inhibition of 5-lipoxygenase in human polymorphonuclear leukocytes
# Format: cell-based
Recorded measurements of IC50, one per entry
Report only the number, with the unit nM understood.

compound	studySystem	IC50, nM
CCCCCCC(Sc1nc(Cl)cc(Nc2ccc(-c3ccccc3)cc2)n1)C(=O)O (configuration not stated)	Polyunsaturated fatty acid 5-lipoxygenase (Homo sapiens)	730

Attention now shifts to the item below.
Short answer please: IC50, Polyunsaturated fatty acid 5-lipoxygenase (Homo sapiens), entry CCCCCCC(Sc1nc(Cl)cc(Nc2cccc(-c3ccccc3)c2)n1)C(=O)O (configuration not stated)
600

* * *

Recorded measurements of pIC50, one per entry
# studySystem: UniProtKB P09917
# methodNotes: Inhibition of 5-lipoxygenase in A23187-stimulated human polymorphonuclear leukocytes using arachidonic acid as substrate incubated 15 mins prior to substrate addition measured after 10 mins by HPLC analysis
A value of pIC50 is the negative decimal logarithm of a concentration given in moles per litre.

Examples with answers:
compound	studySystem	valueMeasured
CCCCCCC(Sc1nc(Cl)cc(Nc2nc(-c3ccc(Cl)cc3)cs2)n1)C(=O)O (stereo not given)	UniProtKB P09917	6.05
CCCCCCC(Sc1nc(Cl)cc(Nc2nc3c(s2)CCc2cc(OC)ccc2-3)n1)C(=O)O (stereo not given)	UniProtKB P09917	6.70
CCCCCCC(Sc1nc(Cl)cc(Nc2nc(-c3ccc(Cl)c(Cl)c3)cs2)n1)C(=O)O (stereo not given)	UniProtKB P09917	6.40
CCCCCCC(Sc1nc(Cl)cc(Nc2nc(-c3ccccc3)cs2)n1)C(=O)O (stereo not given)	UniProtKB P09917	6.22

Attention now shifts to the item below.
What pIC50 value was documented for this compound, CCCCCCC(Sc1nc(Cl)cc(Nc2nc(-c3ccccc3)c(CC)s2)n1)C(=O)O (stereo not given) ?
6.15
